Give measured Inhibition percent for each item. Keep answers brief.
study.system: MeCP2-TBL1 interaction (MeCP2-SmBiT / TBL1-LgBiT) (Mus musculus, UniProt Q9QXE7)
Construct: expressed in transfected cells; crude lysate used as a cell-free assay
Sequence (Q9QXE7 166-527): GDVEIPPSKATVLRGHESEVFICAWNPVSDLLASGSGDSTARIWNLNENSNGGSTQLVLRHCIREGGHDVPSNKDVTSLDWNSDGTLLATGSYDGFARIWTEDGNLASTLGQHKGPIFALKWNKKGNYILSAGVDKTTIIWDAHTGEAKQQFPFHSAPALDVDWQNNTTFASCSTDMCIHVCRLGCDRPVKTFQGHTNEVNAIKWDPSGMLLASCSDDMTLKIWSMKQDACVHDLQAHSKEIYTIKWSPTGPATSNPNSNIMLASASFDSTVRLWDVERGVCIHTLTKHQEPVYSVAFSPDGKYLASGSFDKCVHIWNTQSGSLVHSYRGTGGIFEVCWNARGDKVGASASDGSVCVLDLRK
protocol.text: MeCP2-TBL1 NanoLuc luciferase complementation assay (cell-free, extracts of transfected HEK293 cells);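 note: each compound tested at 20 µM final concentration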
Assay type: binding, human
experimental.context: primary screen of the Asinex library, sheet "Sargen output Asinex library", one well per compound
Give just the numeric value; % need not be written.

compound Cc1n[nH]c(C)c1S(=O)(=O)N1CCC2(CC1)CO[C@@H]1c3ccccc3OC(C)(C)[C@H]1C2 [BDG_33694386] , Inhibition percent observed: 2.05

compound CC(=O)N[C@@]12CN(C)CC[C@@H]1[C@@H](c1ccccc1)N(C(=O)c1cccc(Oc3ncccn3)c1)C2 [BDH_32367667] , Inhibition percent observed: -3.64

compound C[C@@H]1CC[C@@H]2[C@@H](O1)c1cc(OCc3ccccc3)c(C=O)cc1OC2(C)C [BDG_34027484] , Inhibition percent observed: 0.0122

compound Cc1nc(-c2cccnc2)sc1C(=O)N1[C@H]2CCC[C@H]3N[C@H](Cc4ccccc4)[C@@H]1C[C@@]23C [BDG_33506581] , Inhibition percent observed: -1.21
